Biological target: C-X-C chemokine receptor type 2 (Homo sapiens, UniProt P25025)
Sequence (P25025 whole entry): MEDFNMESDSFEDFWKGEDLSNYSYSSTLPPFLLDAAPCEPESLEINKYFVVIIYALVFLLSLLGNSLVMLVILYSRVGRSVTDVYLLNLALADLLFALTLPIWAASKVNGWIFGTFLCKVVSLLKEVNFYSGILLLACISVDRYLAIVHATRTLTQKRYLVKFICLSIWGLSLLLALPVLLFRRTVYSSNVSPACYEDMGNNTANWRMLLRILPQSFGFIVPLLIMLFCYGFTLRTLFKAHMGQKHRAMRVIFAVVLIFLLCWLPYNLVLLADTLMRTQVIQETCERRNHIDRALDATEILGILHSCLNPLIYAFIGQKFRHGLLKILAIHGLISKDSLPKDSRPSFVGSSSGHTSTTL
Assay: Displacement of [125I]IL8 from human CXCR2 expressed in CHO cells
measure: IC50 (nM)

[A] CCNC(=O)c1cccc(/N=c2\c(O)c(O)\c2=N/c2ccccc2)c1O
[B] CN(C)C(=O)c1cccc(/N=c2\c(O)c(O)\c2=N/[C@@H]2CCc3ccccc32)c1O
[C] CN(C)C(=O)c1cccc(/N=c2/c(N(C)c3ccccc3)c(O)c2=O)c1O
[D] N#Cc1ccc(Nc2c(O)c(=O)/c2=N\c2ccccc2)c(O)c1
Exam item: Rank the 4 molecules: largest IC50 first, smallest last. Form entry: labels listed in requested order.
Marked response: C, B, A, D

[a] O=c1c(O)c(Nc2cc([N+](=O)[O-])ccc2O)/c1=N/c1ccccc1
[b] CN(C)C(=O)c1cccc(/N=c2\c(O)c(O)\c2=N/c2ccccc2)c1O
[c] O=C(O)c1ccc(/N=c2\c(O)c(O)\c2=N/c2ccccc2)c(O)c1
[d] CN(c1ccccc1O)c1c(Nc2ccccc2)c(=O)c1=O
[e] CC(C)/N=c1\c(O)c(O)\c1=N/c1cccc(C(=O)N(C)C)c1O
Exam item: Sort by IC50, descending. Form entry: labels listed in requested order.
Marked response: d, c, a, e, b
(d: 28600 nM, c: 3100 nM, a: 56 nM, e: 10 nM, b: 2 nM)

[1] O=C(O)c1cccc(/N=c2\c(O)c(O)\c2=N/c2ccccc2)c1O
[2] N#Cc1ccc(O)c(Nc2c(O)c(=O)/c2=N\c2ccccc2)c1
[3] O=c1c(O)c(Nc2ccccc2)/c1=N/c1ccccc1O
[4] NC(=O)c1cccc(/N=c2\c(O)c(O)\c2=N/c2ccccc2)c1O
Exam item: Sort by IC50, descending. Form entry: labels listed in requested order.
Marked response: 1, 3, 2, 4
(1: 1000 nM, 3: 476 nM, 2: 74 nM, 4: 34 nM)

====

test: Permeability across Caco-2 cell membrane; type: ADME, cell-based; settings: human
measure: Papp (×10⁻⁶ cm/s)

test.smiles	quantity.unit	Papp
CN(C)C(=O)c1cccc(/N=c2\c(O)c(O)\c2=N/C2CCCC2)c1O	×10⁻⁶ cm/s	10.1

[a] CN(C)C(=O)c1cccc(/N=c2\c(O)c(O)\c2=N/c2ccccc2)c1O
[b] CCC(CC)/N=c1\c(O)c(O)\c1=N/c1cccc(C(=O)N(C)C)c1O
Exam item: Higher Papp: a or b ? Lab log: write the label of the selected item as the result.
Marked response: b
(b: 12 ×10⁻⁶ cm/s, a: 2.4 ×10⁻⁶ cm/s)

All figures here come from ChEMBL document CHEMBL1146016.
